Parameter protein stability index: see the listing below.
B1: SMOC2 (parent)
chain: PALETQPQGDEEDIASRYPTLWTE

Variants of: B1
Assay: protein stability index of a GFP-peptide fusion (GPS, HEK-293T) (PSI 1-6); higher = more stable;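 note: lentivirally expressed fusions sorted by FACS into six bins by GFP to DsRed ratio, PSI derived from sequencing read proportions per bin multiplied by bin number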
Details: c terminus: a fixed tail appended

Solved cases (4 shown):
PALETQPQGDEEDIASRYPTLWWE : 5.08
PACETQPQGDEEDIASRYPTLWTE : 5.01
PALETQPQGDEEDIASRYPTLWME : 5.08
PALESQPQGDEEDIASRYPTLWTE : 4.3

In: Suppose we examine the variant `PAEETQPQGDEEDIASRYPTLWTE` ; what protein stability index value has been reported?
Out: 5.59

In: Suppose we examine the variant `PALETQPQGDEEDIISRYPTLWTE` ; what protein stability index value has been reported?
Out: 4.57

In: Suppose we examine the variant `PALETQPQGDEEDIASRYPTYWTE` ; what protein stability index value has been reported?
Out: 3.92

In: Suppose we examine the variant `PALETQPQTDEEDIASRYPTLWTE` ; what protein stability index value has been reported?
Out: 4.97

In: Suppose we examine the variant `PALETQPQGDEEDIASRYPTLWTA` ; what protein stability index value has been reported?
Out: 4.67

In: Suppose we examine the variant `PALETQPQGDEEDIASRYPQLWTE` ; what protein stability index value has been reported?
Out: 3.83

In: Suppose we examine the variant `PALETQPQGDEECIASRYPTLWTE` ; what protein stability index value has been reported?
Out: 3.9

In: Suppose we examine the variant `DALETQPQGDEEDIASRYPTLWTE` ; what protein stability index value has been reported?
Out: 4.56

In: Suppose we examine the variant `PALETQPQGDERDIASRYPTLWTE` ; what protein stability index value has been reported?
Out: 3.93

In: Suppose we examine the variant `PALETQPQGDEEPIASRYPTLWTE` ; what protein stability index value has been reported?
Out: 3.63

In: Suppose we examine the variant `PALETQPQGDEEDIASRYPVLWTE` ; what protein stability index value has been reported?
Out: 3.99

In: Suppose we examine the variant `PALETQPQGCEEDIASRYPTLWTE` ; what protein stability index value has been reported?
Out: 3.36

In: Suppose we examine the variant `PILETQPQGDEEDIASRYPTLWTE` ; what protein stability index value has been reported?
Out: 4.07

In: Suppose we examine the variant `PANETQPQGDEEDIASRYPTLWTE` ; what protein stability index value has been reported?
Out: 4.23

In: Suppose we examine the variant `PALETQPQGDEEDIASRYPTLWFE` ; what protein stability index value has been reported?
Out: 5.22

In: Suppose we examine the variant `PALETQQQGDEEDIASRYPTLWTE` ; what protein stability index value has been reported?
Out: 5.02

In: Suppose we examine the variant `PALETQPQGDEEDIASRYPWLWTE` ; what protein stability index value has been reported?
Out: 4.67

In: Suppose we examine the variant `PALETQPQGDEEDIASRYNTLWTE` ; what protein stability index value has been reported?
Out: 4.72

In: Suppose we examine the variant `PALETQPQGDEEDIASRYPTWWTE` ; what protein stability index value has been reported?
Out: 5.13

In: Suppose we examine the variant `PALETQPQGDEIDIASRYPTLWTE` ; what protein stability index value has been reported?
Out: 3.68

In: Suppose we examine the variant `PALETQPQGDEEDIASRWPTLWTE` ; what protein stability index value has been reported?
Out: 4.6

In: Suppose we examine the variant `PALETIPQGDEEDIASRYPTLWTE` ; what protein stability index value has been reported?
Out: 4.77

Data origin: the supplement of paper PMC10567573
